Each recorded value in this set is attributed to paper PMC9044819.

Test system: HepG-2
Experiment: MTT anti-proliferative assay, HepG-2
Format: cell-based, human
Conditions: Homo sapiens, HepG2, read-out: HepG-2 (IC50, μM)
Metric: IC50
Please answer using a numeric value trailed by its unit.

QUERY: Return reported IC50; argument: Cc1nc2ccccc2n(CC(=O)Nc2ccc(C(=O)Nc3ccc([N+](=O)[O-])cc3O)cc2)c1=O [Compound 17d]
RESULT: 22.4 µM

---

Target: Human VEGFR-2 (Homo sapiens)
Sequence (P35968 20-1356): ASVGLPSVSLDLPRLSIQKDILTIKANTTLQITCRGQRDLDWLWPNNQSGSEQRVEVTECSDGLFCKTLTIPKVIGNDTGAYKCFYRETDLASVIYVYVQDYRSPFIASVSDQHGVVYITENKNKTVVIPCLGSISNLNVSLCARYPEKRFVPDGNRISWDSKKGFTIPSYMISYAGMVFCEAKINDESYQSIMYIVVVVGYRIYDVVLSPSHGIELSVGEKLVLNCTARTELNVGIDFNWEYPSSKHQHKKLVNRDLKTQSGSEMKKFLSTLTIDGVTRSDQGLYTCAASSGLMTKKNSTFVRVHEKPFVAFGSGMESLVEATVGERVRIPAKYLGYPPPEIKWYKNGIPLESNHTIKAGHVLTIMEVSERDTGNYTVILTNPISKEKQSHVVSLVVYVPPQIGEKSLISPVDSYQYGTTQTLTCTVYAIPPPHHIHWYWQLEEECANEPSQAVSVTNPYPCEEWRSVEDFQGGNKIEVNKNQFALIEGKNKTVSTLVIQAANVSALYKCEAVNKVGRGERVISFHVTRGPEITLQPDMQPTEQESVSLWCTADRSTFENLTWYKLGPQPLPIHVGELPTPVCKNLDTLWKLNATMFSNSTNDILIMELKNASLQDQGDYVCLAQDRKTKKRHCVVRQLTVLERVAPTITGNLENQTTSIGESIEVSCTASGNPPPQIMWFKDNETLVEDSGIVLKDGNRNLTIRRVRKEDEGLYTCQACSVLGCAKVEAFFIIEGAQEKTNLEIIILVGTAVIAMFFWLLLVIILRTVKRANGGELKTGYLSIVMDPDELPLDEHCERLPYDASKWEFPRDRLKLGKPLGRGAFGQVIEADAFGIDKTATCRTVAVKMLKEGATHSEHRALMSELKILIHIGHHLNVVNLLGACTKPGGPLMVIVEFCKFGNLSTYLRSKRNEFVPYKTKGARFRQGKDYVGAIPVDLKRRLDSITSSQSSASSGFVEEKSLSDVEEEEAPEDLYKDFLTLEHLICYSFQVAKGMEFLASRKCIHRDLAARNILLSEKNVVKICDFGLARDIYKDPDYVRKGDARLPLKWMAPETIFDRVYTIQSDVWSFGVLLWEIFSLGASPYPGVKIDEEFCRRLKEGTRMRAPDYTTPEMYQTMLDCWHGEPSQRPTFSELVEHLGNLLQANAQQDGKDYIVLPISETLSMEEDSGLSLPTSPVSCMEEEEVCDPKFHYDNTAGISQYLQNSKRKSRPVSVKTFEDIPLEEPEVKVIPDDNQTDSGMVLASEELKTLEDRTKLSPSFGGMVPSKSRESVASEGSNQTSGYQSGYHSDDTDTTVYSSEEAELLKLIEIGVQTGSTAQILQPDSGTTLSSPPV
Metric: pIC50
Entry type: numeric. Quantity: pIC50, the -log10 of concentration in molar units.

QUERY: I am curious: what pIC50 value has been reported for CCCCNC(=O)c1ccc(NC(=O)Cn2c(=O)c(C)nc3ccccc32)cc1 [Compound 17a] ?
RESULT: 7.95

QUERY: Now consider Cc1nc2ccccc2nc1SCC(=O)Nc1ccc(C(=O)NNC(=O)c2ccccc2O)cc1 and answer again.
RESULT: 7.73

QUERY: Moving on to the next compound: Cc1nc2ccccc2n(CC(=O)Nc2ccc(C(=O)Nc3ccc(O)cc3)cc2)c1=O [Compound 17c]
RESULT: 7.86

QUERY: Please answer likewise for Cc1nc2ccccc2nc1SCC(=O)Nc1ccc(C(=O)Nc2ccc([N+](=O)[O-])cc2O)cc1 [Compound 15d]
RESULT: 7.50

QUERY: Continue with Cc1nc2ccccc2n(CC(=O)Nc2ccc(C(=O)Nc3ccc([N+](=O)[O-])cc3O)cc2)c1=O [Compound 17d]
RESULT: 7.95

QUERY: Follow-up entry: Cc1nc2ccccc2n(CC(=O)Nc2ccc(C(=O)NNC(=O)c3ccccc3O)cc2)c1=O
RESULT: 7.95

QUERY: Also, CCCCNC(=O)c1ccc(NC(=O)CSc2nc3ccccc3nc2C)cc1 [Compound 15a] please.
RESULT: 7.64

QUERY: Request: Cc1nc2ccccc2nc1SCC(=O)Nc1ccc(C(=O)Nc2cccc(Cl)c2)cc1 [Compound 15b]
RESULT: 8.47

QUERY: What about this compound? Cc1nc2ccccc2nc1SCC(=O)Nc1ccc(C(=O)Nc2ccc(O)cc2)cc1 [Compound 15c]
RESULT: 7.56
